Reference source: ChEMBL document CHEMBL5705901

# Test system: MV4-11
# run.description: Antiproliferative activity against human MV4-11 assessed as reduction in cell viability incubated for 48 hrs by CellTiter-Glo cell vaibility assay
# Type: functional, cell-based
# conditions: MV4-11, 48 h
pEC50: −log10 of the molar value.

smiles.string | comparison.sign | pEC50
CN(C)CC#Cc1ccc(OCCCc2sc(N3CCc4cccc(C(=O)Nc5nc6ccccc6s5)c4C3)nc2C(=O)O)c(F)c1 | < | 5.30
CC1(C)CCC(CN2CCN(c3ccc(C(=O)NS(=O)(=O)c4ccc(NCC5CCOCC5)c([N+](=O)[O-])c4)c(Oc4cnc5[nH]ccc5c4)c3)CC2)=C(c2ccc(Cl)cc2)C1 | = | 7.00
CC1(C)CCC(c2ccc(Cl)cc2)=C(CN2CCN(c3ccc(C(=O)NS(=O)(=O)c4ccc(N[C@H](CCN5CCOCC5)CSc5ccccc5)c(S(=O)(=O)C(F)(F)F)c4)cc3)CC2)C1 | = | 7.40

###

# run.description: Toxicity in po dosed SCID mouse assessed as body weight loss relative to control
# Type: organism-based
# conditions: in vivo

smiles.string | Activity
Cc1c(-c2ccc(N3CCc4cccc(C(=O)Nc5nc6ccccc6s5)c4C3)nc2C(=O)O)cnn1CC12CC3CC(CC(C3)C1)C2 | < 9%

###

# Tested on: NCI-H187
# run.description: Antiproliferative activity against human NCI-H187 assessed as reduction in cell viability incubated for 48 hrs by CellTiter-Glo cell vaibility assay
# Format: functional, cell-based
# conditions: NCI-H187, 48 h
pEC50: −log10 of the molar value.

smiles.string | test.target | pEC50
CC1(C)CCC(CN2CCN(c3ccc(C(=O)NS(=O)(=O)c4ccc(NCC5CCOCC5)c([N+](=O)[O-])c4)c(Oc4cnc5[nH]ccc5c4)c3)CC2)=C(c2ccc(Cl)cc2)C1 | NCI-H187 | 6.07
CN(C)CC#Cc1ccc(OCCCc2sc(N3CCc4cccc(C(=O)Nc5nc6ccccc6s5)c4C3)nc2C(=O)O)c(F)c1 | NCI-H187 | 6.74
CC1(C)CCC(c2ccc(Cl)cc2)=C(CN2CCN(c3ccc(C(=O)NS(=O)(=O)c4ccc(N[C@H](CCN5CCOCC5)CSc5ccccc5)c(S(=O)(=O)C(F)(F)F)c4)cc3)CC2)C1 | NCI-H187 | 7.43

###

Each item that follows carries a reported pKi.
# test.target: UniProt:Q92843
# Sequence (Q92843 whole entry): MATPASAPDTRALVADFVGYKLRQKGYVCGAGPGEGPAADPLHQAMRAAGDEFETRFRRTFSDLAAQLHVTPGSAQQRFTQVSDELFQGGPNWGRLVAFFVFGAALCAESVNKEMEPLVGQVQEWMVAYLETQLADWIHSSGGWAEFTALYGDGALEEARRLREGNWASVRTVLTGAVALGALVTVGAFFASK
pKi: −log10 of the molar value.

molecule | pKi
CN(C)CC#Cc1ccc(OCCCc2sc(N3CCc4cccc(C(=O)Nc5nc6ccccc6s5)c4C3)nc2C(=O)O)c(F)c1 [A-1155463] | 8.10
CO[C@H]1CC[C@H](CNc2ccc(S(=O)(=O)NC(=O)c3ccc(N4CCN(CC5=C(c6ccc(Cl)cc6)CC(C)(C)CC5)CC4)cc3Oc3cnc4[nH]ccc4c3)cc2[N+](=O)[O-])CC1 [A-1211212] | 6.07
Cc1c(-c2ccc(N3CCc4cccc(C(=O)Nc5nc6ccccc6s5)c4C3)nc2C(=O)O)cnn1CC12CC3CC(CC(C3)C1)C2 | 8.40
